Protocol Notes: MRP1 drug-resistance reversers in H69AR cells – cell-based, doxorubicin co-treatment, pilot screen (AID 601)
Protocol Conditions: H69AR cells + 2 uM doxorubicin, CellTiter-Glo, 72 h; measured here: viability with 2 uM doxorubicin; at 10 µM; stronger effect = lower value
Assay Readout: viability (%)

| Molecule | Assay Readout | Readout Number |
| --- | --- | --- |
| Cc1ccc(C)c(NC2=NCCCS2)c1 | viability | 92.9 |
| CC(=NCc1cccnc1)c1c(O)n(Cc2ccccc2)c(=O)[nH]c1=O | viability | 98.3 |
| O=c1[nH]c(=O)n(Cc2ccco2)c(O)c1C=NCCCn1ccnc1 | viability | 94.8 |
| Nc1ccnn1C1CCNCC1 | viability | 102 |
| O=c1[nH]c(=O)n(-c2ccc(F)cc2)c(O)c1C=Nc1ccccc1N1CCCC1 | viability | 68.2 |
| CC1CCC(C(=O)NC(C(=O)N2CCC3(CC2)OCCO3)C(C)C)CC1 (configuration not stated) | viability | 91 |
| CN1CC[C@@]23CCCC[C@@H]2[C@@H]1Cc1ccc(O)cc13 | viability | 88 |
| N=C(N)c1c(O)n(C2CCCCC2)c(=O)n(C2CCCCC2)c1=O | viability | 1.86 |
| O=C(Cn1ncc2c3ccccc3n(Cc3ccc(F)cc3)c2c1=O)N1CCC2(CC1)OCCO2 | viability | 98.4 |
| O=C(c1ccc(CS(=O)(=O)c2ccccc2)o1)N1CCC2(CC1)OCCO2 | viability | 92 |
| COc1cc(C2NCc3ccccc3-n3cccc32)ccc1O (configuration not stated) | viability | 90.9 |
| CC1=C(C(=O)OC(C)C)[C@]2(C(=O)N(CC(N)=O)c3ccccc32)C(C#N)=C(N)O1 | viability | 97.5 |
| CCCNC(=O)c1c(N)n(Cc2ccc3c(c2)OCO3)c2nc3ccccc3nc12 | viability | 36.8 |
| CN(C)[C@@H]1C(=O)C(C(N)=O)=C(O)[C@@]2(O)C(=O)C3=C(O)c4c(O)ccc(Cl)c4[C@@](C)(O)C3C[C@@H]12 (some centres not stated) | viability | 94.5 |
| COc1ccc(OC)c([C@@H](O)[C@H](C)NC(C)(C)C)c1 | viability | 98.5 |
| CCCCn1c(O)c(C(C)=Nc2cccc(C(=O)O)c2)c(=O)[nH]c1=O | viability | 100 |
| CCN1CCN(Cc2cc(Br)cc(OC)c2O)CC1 | viability | 97.1 |
| CCC(COC(=O)c1cc(OC)c(OC)c(OC)c1)(c1ccccc1)N(C)C (configuration not stated) | viability | 75.7 |
| Clc1ccc(COC(Cn2ccnc2)c2ccc(Cl)cc2Cl)c(Cl)c1 (configuration not stated) | viability | 58.6 |
| Cc1ccc(C2SCC(=O)Nc3c2c(=O)[nH]n3C2CCOC(C)(C)C2)cc1 (configuration not stated) | viability | 87 |
| CC(C)N(CCC(C(N)=O)(c1ccccc1)c1ccccn1)C(C)C (configuration not stated) | viability | 108 |
| CCCC(C)(COC(N)=O)COC(=O)NC(C)C (configuration not stated) | viability | 103 |

====

Protocol Notes: Her2 expression decrease, cell viability multiplex – SKBR3 breast tumor cells, AlphaScreen, ATP viability, primary screen (AID 461);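 further: percent of carrier control wells set as 100% viability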
Protocol Conditions: SKBR3 Her2 protein level, 18-24 h, measured here: SKBR3 viability, ATP luminescence, at 10 µM

| Molecule | Measurement Unit | viability |
| --- | --- | --- |
| c1ccc(C2NCc3ccccc3-n3cccc32)cc1 (stereo not drawn) | % | 86 |
| COc1ccc(N2CCN(CCCN)CC2)cc1 | % | 94.5 |
| O=C(O)C1(c2ccc(Cl)cc2)CCC1 | % | 109 |
| Cc1nn(-c2ccccc2)c2c1CC1(C(=O)N(C)C(=O)N(C)C1=O)C1CCCCN21 (stereo not drawn) | % | 97 |
| CCC(=NCCCN1CCOCC1)c1c(O)n(Cc2ccccc2)c(=O)[nH]c1=O | % | 108 |
| COc1ccc(CN2CCN(C(=O)Cc3ccccc3)CC2)c(OC)c1 | % | 93 |
| CC(=O)N1CC(=O)Nc2ccc(Cl)cc2C1c1ccc(F)cc1 (stereo not drawn) | % | 92.5 |
| C[C@@]1(CO)[C@H](O)CC[C@@]2(C)[C@H]1CC[C@H]1C[C@@H]3C[C@@]12CC[C@]3(O)CO | % | 108 |
| O=c1[nH]c(=O)n(CCc2ccc(F)cc2)c(O)c1C=NCCCn1ccnc1 | % | 114 |
| C[C@H]1CCCC(=O)CCC/C=C/c2cc(O)cc(O)c2C(=O)O1 | % | 98.5 |
| Cc1ccc(OCC(=O)NCCN2CCN(C(=O)COc3ccc(C)cc3)CC2)cc1 | % | 124 |
| COc1ccccc1-n1c(O)c(C=NCc2ccc3c(c2)OCO3)c(=O)[nH]c1=O | % | 93.5 |
| c1cncc(CNC2=NCCCCC2)c1 | % | 80.5 |
| CC(=O)Nc1ccc(OC(=O)c2ccccc2N)cc1 | % | 100 |
| COC(=O)c1c(C)n(Cc2ccc3c(c2)OCO3)c2ccc(O)cc12 | % | 116 |
| Cc1nn(Cc2ccccc2Cl)c(Cl)c1C(=O)OCC(=O)NCc1ccco1 | % | 85 |
| CCN1c2nc3c(C)cccn3c(=O)c2CC2(C(=O)N(C)C(=O)N(C)C2=O)C1C (stereo not drawn) | % | 101 |
| O=C1CC(c2ccccc2)CC(O)=C1C=NCCN1CCN(C(=O)Cc2ccccc2)CC1 (stereo not drawn) | % | 122 |
| CSc1ccc(C(=O)C(C)(C)N2CCOCC2)cc1 | % | 106 |
| Cc1ccccc1NC1=NCCCS1 | % | 106 |
| Cc1cccc(-n2c(-c3ccco3)nc3ccccc3c2=O)n1 | % | 105 |
| CC(C)C(=O)c1cn(Cc2ccccc2C#N)c2ccccc12 | % | 98 |
| Nc1ccnn1C1CCNCC1 | % | 88.5 |

====

System: Pantothenate synthetase (Mycobacterium tuberculosis (strain ATCC 25618 / H37Rv)) (UniProt P9WIL5)
Sequence (P9WIL5 whole entry, looked up): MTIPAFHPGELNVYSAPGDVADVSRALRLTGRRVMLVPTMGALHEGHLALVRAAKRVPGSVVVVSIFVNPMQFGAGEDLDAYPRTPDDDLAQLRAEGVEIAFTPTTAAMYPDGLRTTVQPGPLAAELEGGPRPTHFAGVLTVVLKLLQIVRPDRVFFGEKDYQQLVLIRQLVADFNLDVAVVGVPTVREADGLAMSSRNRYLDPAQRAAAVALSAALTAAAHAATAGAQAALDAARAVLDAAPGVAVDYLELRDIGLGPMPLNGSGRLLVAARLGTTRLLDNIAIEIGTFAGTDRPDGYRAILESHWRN
Protocol Notes: Coupled enzyme confirmation of inhibitors against recombinant Mtb PanC (AID 375);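 further: 0% = full reaction with vehicle and 100% = no enzyme background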
Protocol Conditions: coupled enzyme assay; at 10 µM, stronger effect = higher value
# key: entry, value: inhibition

| Compound | inhibition [%] |
| --- | --- |
| O=C(NCC(=O)N(c1cccnc1)C(C(=O)NC1CCCCC1)c1cccnc1)c1ccco1 (stereo unspecified) | 0 |
| CC(O)CN1C(=O)C(CC(=O)Nc2ccc(Cl)cc2)SC1=Nc1ccccc1 (stereo unspecified) | 0 |
| CC1(c2ccc(OC(F)F)cc2)NC(=O)N(CC(=O)Nc2ccc3c(c2)OCO3)C1=O (stereo unspecified) | 3 |
| CCSc1ncc(C#N)c(=O)[nH]1 | 0 |
| Cc1nonc1NC(=O)c1ccccc1Br | 1 |
| O=S(CC(O)COCc1ccc(Cl)cc1)c1ccccn1 (stereo unspecified) | 0 |
| Cc1cnc(-c2nnc(N(C)C(=O)C3CCOC3)s2)cn1 (stereo unspecified) | 3 |
| CC(C)C(c1nnnn1C1CCCC1)N1CCCc2ccccc21 (stereo unspecified) | 0 |
| CCOc1ccc(N(CC(=O)Nc2cccc(OC)c2)S(=O)(=O)c2c(C)noc2C)cc1 | 11 |
| COc1ccc(N2C(=O)C3C4C=CC(C4)C3C2=O)nn1 (stereo unspecified) | 8 |
| O=C(OC1CCOC1=O)c1ccc(S(=O)(=O)N2CCCCCC2)cc1 (stereo unspecified) | 0 |

====

System: Pantothenate synthetase (Mycobacterium tuberculosis (strain ATCC 25618 / H37Rv)) (UniProt P9WIL5)
Protocol Notes: Coupled enzyme confirmation of inhibitors against recombinant Mtb PanC (AID 375);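 further: 0% = full reaction with vehicle and 100% = no enzyme background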
Protocol Conditions: coupled enzyme assay; at 10 µM, stronger effect = higher value
The source made the active and inactive calls. The rule behind the calls is not given here.
Listed below: inhibition values for each entry.

| Compound | inhibition |
| --- | --- |
| O=c1[nH]c(=O)n(Cc2ccc(F)cc2)c(O)c1C=NCCCN1CCOCC1 | 0% (inactive) |
| CCC(C)NC(=O)C1CCCN(S(=O)(=O)c2ccc(-n3cnnn3)cc2)C1 (stereo not given) | 0% (inactive) |
| COC(=O)c1ccc(CSc2ncnc3c2nnn3-c2ccc(OC)cc2)o1 | 0% (inactive) |
| Fc1ccc(C2C3=C(Nc4ncnn42)c2ccccc2OC3c2ccncc2)cc1 (stereo not given) | 0% (inactive) |
| CCOC(=O)N1CCN(S(=O)(=O)c2cc(Cl)ccc2Cl)CC1 | 3% (inactive) |

====

System: Pantothenate synthetase (Mycobacterium tuberculosis (strain ATCC 25618 / H37Rv)) (UniProt P9WIL5)
Protocol Notes: Coupled enzyme confirmation of inhibitors against recombinant Mtb PanC (AID 375);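 further: 0% = full reaction with vehicle and 100% = no enzyme background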
Protocol Conditions: coupled enzyme assay; at 10 µM, stronger effect = higher value
Reported values of inhibition for individual entries

| Compound | Measurement Unit | inhibition |
| --- | --- | --- |
| Cc1ccc(S(=O)(=O)NCC(=O)N(CC(=O)NCc2ccccc2)CC2CCCO2)cc1 (stereo unspecified) | % | 2 |
| Fc1cccc2sc(Nc3nnc(-c4ccco4)o3)nc12 | % | 8 |
| Cc1csc(SCc2nc3sc4c(c3c(=O)[nH]2)CCC4)n1 | % | 0 |
| CC(=O)Nc1ccc(Cl)cc1C(=O)O | % | 2 |
| O=C(CNC(=O)c1cccs1)NCCN1CCN(c2ccccc2F)CC1 | % | 0 |
| O=C(CSc1nnc(NC(=O)C2CCC2)s1)NC1CC1 | % | 0 |
| COc1ccccc1N1CCN(Cc2cccc(OC)c2O)CC1 | % | 0 |
| CCCCC[C@H](O)/C=C/[C@H]1C=CC(=O)[C@@H]1C/C=C\CCCC(=O)O | % | 0 |
| CCOC(=O)C1=C(O)CCn2c1nc1ccccc12 | % | 2 |
| Cc1nn(C)c(C)c1NC(=O)CSc1nc(Cc2ccccc2)nc2c1cnn2-c1ccccc1 | % | 2 |
| CCOC(=O)CNC(=O)CSc1ncnc2c1cnn2-c1ccccc1 | % | 0 |
